molecular target: UniProt:P33261; assay: in vitro; details: both, pooled cryopreserved human hepatocytes in suspension, probe S-mephenytoin (20 μM)
Sequence (P33261 whole entry): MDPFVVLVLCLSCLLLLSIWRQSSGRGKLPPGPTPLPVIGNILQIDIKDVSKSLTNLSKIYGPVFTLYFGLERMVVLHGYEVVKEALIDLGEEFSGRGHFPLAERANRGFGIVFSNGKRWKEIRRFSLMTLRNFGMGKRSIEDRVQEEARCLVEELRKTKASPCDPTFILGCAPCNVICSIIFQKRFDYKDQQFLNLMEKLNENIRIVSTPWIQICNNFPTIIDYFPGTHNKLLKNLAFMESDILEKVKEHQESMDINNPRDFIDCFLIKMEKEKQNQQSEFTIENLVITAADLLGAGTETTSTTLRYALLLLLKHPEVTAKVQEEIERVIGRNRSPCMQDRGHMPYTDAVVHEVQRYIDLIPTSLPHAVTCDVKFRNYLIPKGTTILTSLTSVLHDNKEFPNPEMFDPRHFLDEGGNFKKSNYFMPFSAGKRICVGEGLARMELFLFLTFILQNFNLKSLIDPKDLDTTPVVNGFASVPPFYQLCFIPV
Quantity name: activity at 60 min, 25 μM (%)

- Molecule: "COc1ccc2[nH]c([S+]([O-])Cc3ncc(C)c(OC)c3C)nc2c1 (stereo not shown)"
  Numeric value: 73.6
